Test: Solubility of compound in phosphate buffer at pH 7.2
Assay type: physicochemical
measured.parameter: solubility (mM)

>  <record.smiles>
CCCCCCCCCCCCCCCC(=O)NC(CCC(=O)O)(CCC(=O)O)CCC(=O)O

>  <reported.measurement>
6.9

$$$$
>  <record.smiles>
CCCCCCCCCCCCCCCCCCCCCC(=O)NC(CCC(=O)O)(CCC(=O)O)CCC(=O)O

>  <reported.measurement>
0.079

$$$$

---

Test system: Neisseria gonorrhoeae
Assay: Antibacterial activity against Neisseria gonorrhoeae ATCC 31426 after 4 days by broth microdilution method
Format: functional
Settings: ATCC 31426, 96 h
Hi! Could you tag entries with MIC99 below 300 µM as Satisfied, and those at or above as Not satisfied? Much appreciated.

>  <record.smiles>
CCCCCCCCCCCCCCCCNC(=O)NC(CCC(=O)O)(CCC(=O)O)CCC(=O)O

>  <classification>
Not satisfied

$$$$
>  <record.smiles>
CCCCCCCCCCCCCCCCCCCCCCNC(=O)NC(CCC(=O)O)(CCC(=O)O)CCC(=O)O

>  <classification>
Satisfied

$$$$
>  <record.smiles>
CCCCCCCCCCCCCC(=O)NC(CCC(=O)O)(CCC(=O)O)CCC(=O)O

>  <classification>
Not satisfied

$$$$
>  <record.smiles>
CCCCCCCCCCCCCCCCCCCCCC(=O)NC(CCC(=O)O)(CCC(=O)O)CCC(=O)O

>  <classification>
Satisfied

$$$$
>  <record.smiles>
CCCCCCCCCCCCCCNC(=O)NC(CCC(=O)O)(CCC(=O)O)CCC(=O)O

>  <classification>
Not satisfied

$$$$
>  <record.smiles>
CCCCCCCCCCCCCCCCCCCC(=O)NC(CCC(=O)O)(CCC(=O)O)CCC(=O)O

>  <classification>
Satisfied

$$$$
>  <record.smiles>
CCCCCCCCCCCCCCCCCCCCOC(=O)NC(CCC(=O)O)(CCC(=O)O)CCC(=O)O

>  <classification>
Satisfied

$$$$
>  <record.smiles>
CCCCCCCCCCCCCCCCCC(=O)NC(CCC(=O)O)(CCC(=O)O)CCC(=O)O

>  <classification>
Not satisfied

$$$$
>  <record.smiles>
CCCCCCCCCCCCCCCCCCOC(=O)NC(CCC(=O)O)(CCC(=O)O)CCC(=O)O

>  <classification>
Satisfied

$$$$
>  <record.smiles>
CCCCCCCCCCCCCCCCOC(=O)NC(CCC(=O)O)(CCC(=O)O)CCC(=O)O

>  <classification>
Satisfied

$$$$
>  <record.smiles>
CCCCCCCCCCCCCCCCCCNC(=O)NC(CCC(=O)O)(CCC(=O)O)CCC(=O)O

>  <classification>
Satisfied

$$$$
